- ASSAY_SUMMARY: PAMPA gastrointestinal (GIT) permeability
- Assay type: in vitro ADME
- APPLIED_CONDITIONS: pH 6.8
MEASUREMENT_KIND: Papp at 3 h (×10⁻⁶ cm/s)
Answers are plain numbers, in ×10⁻⁶ cm/s.

State its Papp at 3 h: COc1cc(/C=C/C(=O)CC(=O)/C=C/c2ccc(O)c(OC)c2)ccc1O
3.46

---

- ASSAY_SUMMARY: PAMPA blood–brain barrier (BBB) permeability
- Type: in vitro ADME
- APPLIED_CONDITIONS: PAMPA; donor pH ≈ 7.4, 4 h, 310 K; read-out: Papp of piperine, BBB PAMPA
MEASUREMENT_KIND: Papp at 4 h (×10⁻⁶ cm/s)
Give bare numbers, in ×10⁻⁶ cm/s.

State its Papp at 4 h: O=C(/C=C/C=C/c1ccc2c(c1)OCO2)N1CCCCC1
11.9

---

- ASSAY_SUMMARY: PAMPA gastrointestinal (GIT) permeability
- Assay type: in vitro ADME
- APPLIED_CONDITIONS: donor pH ≈ 6.8, 3 h, 310 K, read-out: Papp of piperine, GIT PAMPA
MEASUREMENT_KIND: Papp at 3 h (×10⁻⁶ cm/s)
Numbers only, in ×10⁻⁶ cm/s.

State its Papp at 3 h: O=C(/C=C/C=C/c1ccc2c(c1)OCO2)N1CCCCC1
19
